- test-protocol: yeast growth modulation, basal conditions, primary screen, YJM789 clinical isolate, OD600, 24 h (AID 1089);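 also: growth of clinical yeast isolate S. cerevisiae YJM 789 seeded 1000 cells per well; test concentration not given here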
- run-conditions: S. cerevisiae YJM789 growth, higher = more signal, called active from +8 up or from −8 down
Label 1.0 when z-score is at or above -0.4; otherwise label 0.0.

Before answering, review these 3 worked examples.
INSERT INTO assay_data (compound, label_value) VALUES
  ('COc1ccc(COC(=O)NN=C2C[C@@H](O)[C@@H](O)[C@@H]3[C@@H]4C(=O)N(C5CCCCC5)C(=O)[C@@H]4CC[C@@H]23)cc1', 0.0),
  ('CON=C[C@@H](OC)[C@H](C)C=CCC(=O)OC', 1.0),
  ('CCN1C(=O)[C@H]2[C@H]3[C@H](O)[C@H](O)CC(=NO[C@H](C)c4cn([C@H](CO)Cc5ccccc5)nn4)[C@@H]3CC[C@H]2C1=O', 0.0);

Is it the case that CCc1cc2c(nc1CC)CCN(CCC(C)=NOC(C)CN1CCCCc3nc(C)c(C)cc31)C2 (configuration not stated) has z-score reaching or exceeding -0.4?
1.0

Is it the case that O=C(NN=C1C[C@@H](O)[C@@H](O)[C@@H]2[C@@H]3C(=O)N(c4ccc(F)cc4F)C(=O)[C@@H]3CC[C@H]12)OCc1ccccc1 has z-score reaching or exceeding -0.4?
1.0

Is it the case that CC(CCC(=O)OC[C@H]1O[C@H](C#Cc2ccccc2)C=C[C@@H]1Oc1ccc(C)cc1)=NO[C@H](C)c1cn([C@@H]2COC[C@H]2O)nn1 has z-score reaching or exceeding -0.4?
0.0

Is it the case that CCOC(=O)[C@H](Cc1ccccc1)NC(=O)CCC1CC(OC(=O)NCc2ccc3c(c2)OCO3)CC2(CCCC(COC(=O)NCCOC)O2)O1 (some centres not stated) has z-score reaching or exceeding -0.4?
0.0

* * *

- System: Neuregulin-1 EGF-like domain
- test-protocol: binders of neuregulin-1 EGF-like domain, primary screen, biochemical, small-molecule microarray, 635 nm fluorescence (AID 1081);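 also: binding of the protein to compounds printed on small-molecule microarray slides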
- run-conditions: small-molecule microarray binding, higher = more signal
So I've got a bunch of compounds here, and I need their composite z-score values.
Answers are plain numbers.

// known answers, use as guide
INSERT INTO results (compound, numeric_result) VALUES
  ('COC(=O)[C@@H]1CC[C@H](C)[C@@H](c2ccc(C)cc2)N1C(=O)c1ccc(C=NO[C@@H](C)c2cc(-c3c(C)cc(C)cc3C)no2)cc1', 0.38),
  ('CC(C)=CCCC(C)=CCON=C1C[C@@H](O)[C@@H](O)[C@@H]2[C@@H]3C(=O)N(Cc4ccc5c(c4)OCO5)C(=O)[C@@H]3CC[C@H]12', 0.615);

Lab note: each compound below needs its composite z-score filled in.
1. COc1ccc(O[C@H]2C=C[C@@H](c3ccccc3)O[C@@H]2CO)cc1
2. CCOC(=O)[C@H](CC(C)C)NC(=O)CCC1CC(OC(=O)NCc2ccc3c(c2)OCO3)CC2(CCCC(COC(=O)NCCc3ccc(Cl)cc3)O2)O1 (some centres undefined)

1. -0.134
2. 0.993

* * *

So I've got a bunch of compounds here, and I need their z-score values.
- test-protocol: mitochondrial membrane potential change in A549 cells, profiling panel, cell-based, JC-1 fluorescence, basal, 24 h, 100 nL (AID 1138);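 also: A549 lung adenocarcinoma cells under basal conditions with no added stimulus; test concentration not given here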
- run-conditions: higher = more signal
Give bare numbers.

// known answers, use as guide
INSERT INTO results (compound, numeric_result) VALUES
  ('COc1ccc(COC(=O)NN=C2C[C@@H](O)[C@@H](O)[C@@H]3[C@@H]4C(=O)N(C[C@@H]5CCCO5)C(=O)[C@@H]4CC[C@@H]23)cc1', 0.883),
  ('O=C1C=C[C@@H](O)[C@@H]2[C@@H]3C(=O)N(Cc4ccc5c(c4)OCO5)C(=O)[C@@H]3CC[C@@H]12', -0.635),
  ('COC(=O)CC=C[C@@H](C)[C@@H](C=NOC(C)CN1CCCCc2nc(C)c(C)cc21)OC (some centres not stated)', 0.855),
  ('COC(=O)[C@H](C)NC(=O)CCC1CC(OC(=O)NCCc2ccc(F)cc2)CC2(CCCC(COC(=O)NCC3CCCCC3)O2)O1 (some centres not stated)', -1.03),
  ('CCN1C(=O)[C@H]2[C@H]3[C@H](O)[C@H](O)CC(=NOCC(C)C)[C@H]3CC[C@H]2C1=O', -0.087),
  ('COC(=O)[C@H](C)NC(=O)CCC1CC(OC(=O)NCc2ccc3c(c2)OCO3)CC2(CCCC(COC(=O)NCCc3ccc(Cl)cc3)O2)O1 (some centres not stated)', -0.928),
  ('C[C@@H]1CC[C@H]2C(=O)OC(Cc3ccccc3)CN2[C@H]1c1ccc(Br)cc1 (some centres not stated)', 1.57),
  ('CCCC[C@H]1CN2[C@@H](CC[C@@H](C)[C@@H]2c2ccc(Br)cc2)C(=O)O1', 0.962);

Lab note: each compound below needs its z-score filled in.
1. CC(C)=NO[C@H](C)c1cn([C@@H]2COC[C@H]2O)nn1
2. CC(C)[C@H](NC(=O)OC(C)(C)C)[C@@H](O)CC(=O)C(C)(C)C
3. C[C@@H](c1ccccc1)N1C(=O)[C@H]2[C@H]3[C@H](O)[C@H](O)CC(=NNC(=O)OCc4ccccc4)[C@@H]3CC[C@H]2C1=O
4. CC1(C)O[C@H]2OC([C@H](O)CON3C(=O)c4ccccc4C3=O)[C@H](O)[C@H]2O1 (some centres not stated)
5. COc1ccc(O[C@H]2C=C[C@@H](c3ccccc3)O[C@@H]2CON=C(C)CCN2CCCc3nc(C)c(C)cc32)cc1
6. O=C1C[C@H](c2ccccc2)[C@H](c2ccc(Br)cc2)O1
7. CO[C@@H](C(C)C)[C@@H](C)C1OC(=O)CC1O (some centres not stated)
8. O=C1CCCC=C1C(O)c1ccc([N+](=O)[O-])cc1 (configuration not stated)

1. 0.027
2. 0.109
3. -0.383
4. -0.487
5. 1.16
6. -0.421
7. 0.000179
8. -0.115

Lab note: each compound below needs its z-score filled in.
1. CC(CCC(=O)OC[C@H]1O[C@H](C#Cc2ccccc2)C=C[C@@H]1Oc1ccc(C)cc1)=NO[C@H](C)c1cn([C@@H]2COC[C@H]2O)nn1
2. CCOC(=O)[C@H](Cc1ccccc1)NC(=O)CCC1CC(OC(=O)NCc2ccc3c(c2)OCO3)CC2(CCCC(COC(=O)NCCOC)O2)O1 (some centres not stated)
3. COC(=O)CC=C[C@@H](C)[C@@H](C=NOC(C)CN1CCCc2nc(C)c(C)cc21)NS(=O)(=O)c1ccc(C)cc1 (some centres not stated)
4. CC(CCN1CCCc2nc(C)c(C)cc21)=NOC[C@@H](C)[C@H](OCc1ccccc1)C(C)C
5. COc1ccc(OC[C@H]2CN3[C@@H](CC[C@@H](C)[C@@H]3c3ccc(Br)cc3)C(=O)O2)cc1

[-0.262, -0.599, 0.835, 1.37, -0.124]

* * *

So I've got a bunch of molecules here, and I need their z-score values.
- test-protocol: MM1S cell viability effects, profiling panel, calcein-AM fluorescence, 48 h, basal (AID 1165);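 also: viability of MM1S multiple myeloma cells under basal unstimulated conditions; test concentration not given here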
- run-conditions: higher = more signal

INSERT INTO measurements (molecular_string, result) VALUES
  ('CCOC(=O)CCN1C(=O)[C@H]2[C@H]3[C@H](O)[C@H](O)CC(=O)[C@@H]3CC[C@H]2C1=O', -0.885),
  ('CC(C)[C@@H](OCc1ccccc1)[C@H](C)C=NO[C@H](C)c1cn([C@@H]2COC[C@H]2O)nn1', 0.0238),
  ('O=C1[C@H]2[C@H]3[C@H](O)[C@H](O)CC(=NOC[C@@H](O)COCc4ccco4)[C@@H]3CC[C@H]2C(=O)N1c1cccc(Oc2ccccc2)c1', -0.163),
  ('C#CCCCON=C1C[C@@H](O)[C@@H](O)[C@@H]2[C@@H]3C(=O)N(C[C@@H]4CCCO4)C(=O)[C@@H]3CC[C@@H]12', 0.476),
  ('CC(C)[C@@H](OCc1ccccc1)[C@H](C)C=NOC[C@@H](O)[C@H]1O[C@@H]2OC(C)(C)O[C@@H]2[C@H]1O', 0.592),
  ('CCN1C(=O)[C@H]2[C@H]3[C@H](O)[C@H](O)CC(=NOCC(C)C)[C@H]3CC[C@H]2C1=O', 0.199);

Here is another molecule to look at.
Any idea what its z-score is? The molecule is CC(=O)OC[C@H]1O[C@H](CCON=C(C)CCN2CCCc3nc(C)c(C)cc32)C=C[C@@H]1OC(C)=O
-1.85

* * *

- Test system: Chordin-like protein 2 (CHRDL2)
- test-protocol: CHRDL2 small-molecule binders, primary screen, biochemical, small-molecule microarray, 635 nm fluorescence (AID 1126);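 also: printed compound slides probed with Chrdl2 protein at 4 µg/mL for 1 h at 4 C; score merges 667 nm emission intensity with signal to noise over three replicate slides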
- run-conditions: small-molecule microarray binding, fluorescence 635 nm; higher = more signal
So I've got a bunch of compounds here, and I need their composite z-score values.
Give bare numbers.

INSERT INTO results (compound, property_measured, numeric_result) VALUES
  ('COC(=O)[C@@H]1CC[C@H](C)[C@@H](c2ccc(C)cc2)N1C(=O)c1ccc(C=NOC[C@@H](O)[C@H]2O[C@@H]3OC(C)(C)O[C@@H]3[C@H]2O)cc1', 'composite z-score', 0.402),
  ('CCOC(=O)[C@H](Cc1ccccc1)NC(=O)CCC1CC(OC(=O)NCc2ccc3c(c2)OCO3)CC2(CCCC(COC(=O)NCCOC)O2)O1 (some centres not stated)', 'composite z-score', 0.379),
  ('CC(C)[C@@H](OCc1ccccc1)[C@H](C)CON=C1[C@H]2CCn3c(=O)n(-c4ccccc4)c(=O)n3[C@H]2[C@H](O)[C@@H]2O[C@H]12', 'composite z-score', 0.427);

Lab note: each compound below needs its composite z-score filled in.
1. COc1ccc(OC[C@@H]2CC3[C@@H](c4ccc(Br)cc4)[C@H](C)CC[C@H]3C(=O)O2)cc1 (some centres not stated)
2. Cc1ccc(S(=O)(=O)N[C@@H]2COC(=O)CC=C[C@@H](C)[C@H](NS(=O)(=O)c3ccc(C)cc3)COC(=O)[C@H](C)NC(=O)CC=C[C@H]2C)cc1
3. COc1ccc(O[C@H]2C=C[C@@H](C#Cc3ccccc3)O[C@@H]2CO)cc1
4. CO[C@@H]1COC(=O)CC=C[C@H](C)[C@H](OC)COC(=O)[C@@H]2CCCN2C(=O)CC=C[C@H]1C

1: 0.584; 2: 0.835; 3: 0.176; 4: 1.44
